- Target or system: CNE20 N276A
- Assay explanation: Env ELISA, IgG dilution series on SOSIP trimer, area under the binding curve
Assay readout: binding result

IO-003 (antibody, V domains shown) VH: QVQLVQSGAEVKKPGASVTVSCKASGYTFTDYFIHWVRQAPGQGLEWMGWINPFRGAVDYAQKFRGRVTMTRDTSITTAYMELSRLRSDDTAVYYCARAMFDSSDEWSPWHGLVAWGQGTLVTVSS VL: QSALTQPASVSGSPGQSITISCTGTSRDIGSFNLVSWYQQHPGKAPKLMIYDVSKRPSGVSNRFSGSKSDNMASLIISGFQAEDEAEYFCCSFAGSLAFGGGTKLTVL | binds
IO-050 (antibody, V domains shown) VH: QVQLVQSGAEVKKPGASVRVSCKASGYTFTDYEIHWVRQAPGQGLEWMGWINPFRGAVKYRQKFQGRVTMTRDPSITTAYMELSRLRSDDTARYYCAREMFDSDDEWSPWRGMVAWGQGTLVTVSS VL: QSALTQPASVSGSPGQSITISCTGTSSDVGSYNLVSWYQQHPGKAPKLMIYEVSRRPSGVSNRFSGSKSGNTASLTISGFQAEDEADYYCCSYADTLIFGGGTKLTVL | binds
IOMA IgG (antibody, V domains shown, Mature CD4bs bNAb; also called mature IOMA) VH: EVQLVESGAQVKKPGASVTVSCTASGYKFTGYHMHWVRQAPGRGLEWMGWINPFRGAVKYPQNFRGRVSMTRDTSMEIFYMELSRLTSDDTAVYYCAREMFDSSADWSPWRGMVAWGQGTLVTVSS VL: QSALTQPASVSGSPGQSITISCAGSSRDVGGFDLVSWYQQHPGKAPKLIIYEVNKRPSGISSRFSASKSGNTASLTISGLQEEDEAHYYCYSYADGVAFGGGTKLTVLG | binds
